biological target: Squalene Synthase in Rat Liver Microsomes (Rattus norvegicus, UniProt Q02769)
Sequence (Q02769 whole entry): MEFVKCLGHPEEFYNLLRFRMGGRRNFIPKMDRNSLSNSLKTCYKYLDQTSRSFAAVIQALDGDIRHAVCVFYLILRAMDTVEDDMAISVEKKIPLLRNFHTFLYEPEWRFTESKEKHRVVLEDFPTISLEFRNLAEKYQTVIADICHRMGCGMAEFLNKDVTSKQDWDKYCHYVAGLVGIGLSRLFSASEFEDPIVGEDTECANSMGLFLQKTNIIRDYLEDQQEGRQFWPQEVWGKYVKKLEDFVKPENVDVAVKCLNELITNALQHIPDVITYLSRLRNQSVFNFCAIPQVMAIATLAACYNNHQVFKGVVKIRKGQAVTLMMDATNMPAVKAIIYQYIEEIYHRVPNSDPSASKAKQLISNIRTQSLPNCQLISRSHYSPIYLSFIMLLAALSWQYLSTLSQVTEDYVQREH
Structures can show the parent of a compound that is named as a salt.
quantity: pIC50
Numbers only, as −log10 of the molar value.

These recorded examples may help you get a feel for the data.
INPUT: Query (compound): C(#Cc1cccc2ncccc12)c1ccc(OCCCN2CC3CCC2CC3)cc1 [Compound 25, dihydrochloride] ; field requested: pIC50
OUTPUT: 7.51

INPUT: Query (compound): CCOC(=O)C#Cc1ccc(OCCCN2CC3CCC2CC3)cc1 [Compound 12, hydrochloride] ; field requested: pIC50
OUTPUT: 7.19

INPUT: Query (compound): O=C1C2CCC(CC2)N1CCCOc1ccc(C#Cc2ccc(-c3cccc4ncccc34)cc2)cc1 [Compound 23, hydrochloride] ; field requested: pIC50
OUTPUT: 7.16

INPUT: Query (compound): C#Cc1ccc(OCCCN2CC3CCC2CC3)cc1 [Compound 10, hydrochloride] ; field requested: pIC50
OUTPUT: 7.72

INPUT: Query (compound): CCOC(=O)c1ccc(C#Cc2ccc(OCCCN3C(=O)C4CCC3CC4)cc2)cc1 [Compound 15] ; field requested: pIC50
OUTPUT: 6.39

Give measured pIC50 for every item shown.
1. O=C(O)C#Cc1ccc(OCCCN2C(=O)C3CCC2CC3)cc1 [Compound 7]
2. O=C1C2CCC(CC2)N1CCCOc1ccc(C#Cc2ccc(N3C(=O)C4CCC3CC4)cc2)cc1 [Compound 24]
3. CCOC(=O)c1ccc(C#Cc2ccc(OCCCN3CC4CCC3CC4)cc2)cc1 [Compound 20, hydrochloride]
4. C#Cc1ccc(OCCCN2CC3CCC2CC3)c(CC=C)c1 [Compound 38, hydrochloride]
5. O=C(O)c1ccc(C#Cc2ccc(OCCCN3C(=O)C4CCC3CC4)cc2)s1 [Compound 21]

OUTPUT:
6.31
4.25
6.16
7.96
7.25

Give measured pIC50 for every item shown.
1. Cl.O=C(O)c1ccc(C#Cc2ccc(OCCCN3CC4CCC3CC4)cc2)cc1 [Compound 19, hydrochloride]
2. O=C1C2CCC(CC2)N1CCCOc1ccc(C#Cc2cccc3ncccc23)cc1 [Compound 22, hydrochloride]

OUTPUT:
[7.41, 7.82]

Every entry's value here was drawn from patent US6124460A.
